- targetUnderTest: human neutrophil elastase (Homo sapiens, UniProt P08246)
- Sequence (P08246 30-267): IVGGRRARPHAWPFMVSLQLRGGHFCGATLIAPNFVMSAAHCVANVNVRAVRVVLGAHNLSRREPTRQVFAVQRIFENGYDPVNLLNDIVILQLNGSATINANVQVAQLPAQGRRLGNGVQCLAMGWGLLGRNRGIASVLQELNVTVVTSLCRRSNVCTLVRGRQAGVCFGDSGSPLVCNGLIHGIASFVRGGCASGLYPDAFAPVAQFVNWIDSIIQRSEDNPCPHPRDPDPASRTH
- test: Inhibition of human neutrophil elastase (hydrolysis of MeOSuc-AAPV-pNA)
- particulars: substrate MeOSuc-AAPV-pNA 0.3 mM, enzyme 10 nM, 37° C., pH 8; read-out: Human neutrophil elastase (hNE) IC50
*1 amine or outer side, *2 acyl side, *3 side chain or, on linkers, in order; H or OH if unused. Where a SMILES comes first, the peptide text is derived from it. [ ]: non-standard residue; d: D form. X3 = O=C(CC[C@H](Cc1ccc(O)cc1)N[*:1])[*:2]; Oic = O=C(O)[C@@H]1C[C@@H]2CCCC[C@@H]2N1; Gly(octyl) = CCCCCCCC[C@H](N)C(=O)O; hTyr = N[C@@H](CCc1ccc(O)cc1)C(=O)O
readoutName: IC50

# compound, targetUnderTest, readoutName, recordedValue
measured = [
    ("CCCCCCCC[C@@H]1NC(=O)[C@H](C(C)C)NC(=O)[C@@H](CO)NC(=O)[C@H]([C@@H](C)O)NC(=O)[C@H](CCCCN)NC(=O)[C@H](CCC(N)=O)NC(=O)[C@@H]2CCCN2C(=O)[C@@H]2CCCN2C(=O)[C@H]([C@@H](C)CC)NC(=O)[C@H](CO)NC(=O)[C@H](C)NC(=O)[C@H]([C@@H](C)O)NC(=O)[C@H](CCC(=O)O)NC1=O [Example 30] (cyclo([Gly(octyl)]ETASIPPQKT[dS]V))", "human neutrophil elastase (Homo sapiens, UniProt P08246)", "IC50", "12 nM"),
]

For record CCCCCCCC[C@@H]1NC(=O)[C@@H]2CCCN2C(=O)[C@H]2CCCN2C(=O)[C@H]([C@@H](C)O)NC(=O)[C@H](CCCCN)NC(=O)[C@H](CCC(N)=O)NC(=O)[C@@H]2C[C@@H]3CCCC[C@@H]3N2C(=O)[C@@H]2CCCN2C(=O)[C@H]([C@@H](C)CC)NC(=O)[C@H](CO)NC(=O)[C@H](C)NC(=O)[C@H]([C@@H](C)O)NC(=O)[C@H](CCC(=O)O)NC1=O [Example 10] (cyclo([Gly(octyl)]ETASIP[Oic]QKT[dP]P)) the listed IC50 is 7.3 nM

Notebook: CCCCCCCC[C@@H]1NC(=O)[C@@H]2CCCN2C(=O)[C@H]2CCCN2C(=O)CC[C@H](Cc2ccc(O)cc2)NC(=O)[C@H](CCCCN)NC(=O)[C@H](CCC(N)=O)NC(=O)[C@@H]2CCCN2C(=O)[C@@H]2CCCN2C(=O)[C@H]([C@@H](C)CC)NC(=O)[C@H](CO)NC(=O)[C@H](C)NC(=O)[C@H]([C@@H](C)O)NC(=O)[C@H](CCC(=O)O)NC1=O [Example 8] (cyclo([Gly(octyl)]ETASIPPQK[X3][dP]P)) , IC50 read as 19.8 nM

Per the records, this compound ( CCCCCCCC[C@@H]1NC(=O)[C@H](CCCCN)NC(=O)[C@@H](Cc2ccc(O)cc2)NC(=O)[C@H]([C@@H](C)O)NC(=O)[C@H](CCCCN)NC(=O)[C@H](CCC(N)=O)NC(=O)[C@@H]2CCCN2C(=O)[C@@H]2CCCN2C(=O)[C@H]([C@@H](C)CC)NC(=O)[C@H](CO)NC(=O)[C@H](C)NC(=O)[C@H]([C@@H](C)O)NC(=O)[C@H](CCC(=O)O)NC1=O [Example 25] (cyclo([Gly(octyl)]ETASIPPQKT[dY]K)) ) has IC50 equal to 6.4 nM

// field: IC50; key: CC[C@H](C)[C@@H]1NC(=O)[C@H](CO)NC(=O)[C@H](C)NC(=O)[C@H]([C@@H](C)O)NC(=O)[C@H](CCc2ccc(O)cc2)NC(=O)[C@H](CCCNC(=N)N)NC(=O)[C@H](CCC(=O)O)NC(=O)[C@H]2CCCN2C(=O)[C@H]([C@@H](C)O)NC(=O)[C@H](CCCCN)NC(=O)[C@H](CCC(N)=O)NC(=O)[C@@H]2CCCN2C(=O)[C@@H]2CCCN2C1=O [Example 49] (cyclo(R[hTyr]TASIPPQKT[dP]E)) ; value = 15.3 nM
